measurement_target: T1, human IFNAR-1 protein (form not stated) (human, UniProt P17181 28-436, limits assumed)
T1 construct: bispecific ELISA
T1 sequence (looked up): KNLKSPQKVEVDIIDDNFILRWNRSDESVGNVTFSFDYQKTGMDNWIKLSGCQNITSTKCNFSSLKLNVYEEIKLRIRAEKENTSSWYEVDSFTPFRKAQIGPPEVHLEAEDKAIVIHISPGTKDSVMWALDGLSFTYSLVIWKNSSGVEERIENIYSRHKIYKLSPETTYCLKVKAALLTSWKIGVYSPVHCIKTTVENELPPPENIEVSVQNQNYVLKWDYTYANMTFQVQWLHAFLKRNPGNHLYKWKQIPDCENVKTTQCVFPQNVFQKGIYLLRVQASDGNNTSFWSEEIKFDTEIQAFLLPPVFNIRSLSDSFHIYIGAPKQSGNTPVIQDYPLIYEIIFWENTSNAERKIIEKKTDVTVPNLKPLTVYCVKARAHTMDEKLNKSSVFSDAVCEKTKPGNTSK
test: affinity ranking of expressed humanized 8G11 IgGs (method not named)
# Kd annotations
reported_endpoint: Kd (nM)

[[record]]
binder = "8G11 humanized VH1 + VL4 (antibody, V domains shown, Humanized IgG expressed in HEK293; also called VH1 + VL4 (8G11)) VH: QVQLVQSGAEVKKPGASVKVSCKASGFNIKDYYMHWVRQAPGQGLEWMGRIDPEDAETKYAPKFQGRVTMTRDTSTSTVYMELSSLRSEDTAVYYCARGGNFYVMDYWGQGTLVTVSS VL: DIQMTQSPSFLSTSVGDRVTVTCKASQNVGTNVVWYQQKPGKSPKVLIYSASYRVSGVPSRFSGSGSGTEFTLIISSVQPEDFATYFCQQKNNYPYTFGQGTKLEIK"
reported_endpoint = "Kd"
data_value = 0.836

[[record]]
binder = "8G11-H4L3 (antibody, V domains shown, Humanized IgG expressed in HEK293; also called VH4 + VL3 (8G11)) VH: QVQLVQSGAEVVKPGASVKLSCKGSGFNIKDYYMHWVKQAPGQGLEWIGRIDPEDAETKYAPKFQGRATITADTSTSTAYLELSSLRSEDTAVYYCARGGNFYVMDYWGQGTLVTVSS VL: DIQLTQSPSFLSTSVGDRVTITCKASQNVGTNVVWYQQKPGKSPKVLIYSASYRVSGVPSRFSGSGSGTEFTLIISSVQPEDFATYFCQQKNNYPYTFGQGTKLEIK"
reported_endpoint = "Kd"
data_value = 0.284

[[record]]
binder = "8G11-H1L1 (antibody, V domains shown, Humanized IgG expressed in HEK293; also called VH1 + VL1 (8G11)) VH: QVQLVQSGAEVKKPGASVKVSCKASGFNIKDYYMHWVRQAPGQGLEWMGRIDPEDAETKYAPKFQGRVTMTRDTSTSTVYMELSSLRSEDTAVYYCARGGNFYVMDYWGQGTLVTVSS VL: DIQLTQSPSFLSASVGDRVTITCKASQNVGTNVVWYQQKPGKAPKLLIYSASYRVSGVPSRFSGSGSGTEFTLTISSLQPEDFATYYCQQKNNYPYTFGQGTKLEIK"
reported_endpoint = "Kd"
data_value = 0.662

